Test System: AMPA receptor
Assay Protocol: Radioligand binding: [^3 H]AMPA binding with crude membranes of rat forebrain
Stated Conditions: Table II; enantiopure; [^3 H]AMPA 5 nM, 100 mM KSCN; mean ± standard error (n = 3), values marked ^c single experiment; read-out: IC50 AMPA, receptor binding
Endpoint: IC50 (µM)

O=C(O)[C@@H]1C[C@H]2C[C@@H](CS(=O)(=O)c3nc[nH]n3)CC[C@H]2CN1	0.63
O=C(O)[C@H]1C[C@@H]2C[C@H](CS(=O)(=O)c3nc[nH]n3)CC[C@@H]2CN1	23.6

a = O=C(O)[C@H]1C[C@@H]2C[C@H](CSc3nn[nH]n3)CC[C@@H]2CN1
b = O=C(O)[C@@H]1C[C@H]2C[C@@H](CSc3nn[nH]n3)CC[C@H]2CN1
Record comparison, field IC50: mark the lower of a and b . # respond with the chosen item's label
b
